Tested on: Staphylococcus aureus ATCC 29213
Experiment: microbe, parasite or virus in culture
Conditions: S. aureus ATCC 29213; MHB containing polysorbate 80 (0.002%, v/v); 37 °C, 24 h
Bridge positions count the residues as written; N and C are the ends. Square brackets hold non-standard residues; d marks the D form. Peptide text beside a SMILES is read from it. d(aIle) = CC[C@H](C)[C@@H](N)C(=O)O; dNMeF = CN[C@H](Cc1ccccc1)C(=O)O
Task for the reader: assign each of the following compounds its reported MIC (with polysorbate 80).
Give bare numbers, in µg/mL.

[[record]]
compound = "CC[C@H](C)[C@H](NC(=O)[C@@H](Cc1ccccc1)NC)C(=O)N[C@@H](CO)C(=O)N[C@H](CCC(N)=O)C(=O)N[C@@H](C(=O)N[C@H](C(=O)N[C@@H](CO)C(=O)N[C@H]1C(=O)N[C@@H](C)C(=O)N[C@@H](C)C(=O)N[C@@H]([C@@H](C)CC)C(=O)O[C@H]1C)[C@@H](C)CC)[C@@H](C)CC [Compound 8, Ala10-teixobactin] (H-[dNMeF]IS[dQ][d(aIle)]IS[dT]AAI; ester 8-C)"
observable = "MIC (with polysorbate 80)"
u = "µg/mL"
measurement = 1


Would you mind listing MIC (with polysorbate 80) for each of the following compounds?
1. CC[C@H](C)[C@H](NC(=O)[C@@H](Cc1ccccc1)NC)C(=O)N[C@@H](CO)C(=O)N[C@H](CCC(N)=O)C(=O)N[C@@H](C(=O)N[C@H](C(=O)N[C@@H](CO)C(=O)N[C@H]1C(=O)N[C@@H](C)C(=O)N[C@@H](CCCNC(=N)N)C(=O)N[C@@H]([C@@H](C)CC)C(=O)O[C@H]1C)[C@@H](C)CC)[C@@H](C)CC
2. CCCCCCCCCC(=O)N[C@@H](Cc1c[nH]c2ccccc12)C(=O)N[C@H](CC(N)=O)C(=O)N[C@@H](CC(=O)O)C(=O)N[C@@H]1C(=O)NCC(=O)N[C@@H](CCCN)C(=O)N[C@@H](CC(=O)O)C(=O)N[C@H](C)C(=O)N[C@@H](CC(=O)O)C(=O)NCC(=O)N[C@H](CO)C(=O)N[C@@H]([C@H](C)CC(=O)O)C(=O)N[C@@H](CC(=O)c2ccccc2N)C(=O)O[C@@H]1C [Daptomycin, reference compound]
3. CC[C@H](C)[C@H](NC(=O)[C@@H](Cc1ccccc1)NC)C(=O)N[C@@H](CO)C(=O)N[C@H](CCC(N)=O)C(=O)N[C@@H](C(=O)N[C@H](C(=O)N[C@@H](CO)C(=O)N[C@H]1C(=O)N[C@@H](C)C(=O)N[C@@H](C(C)C)C(=O)N[C@@H]([C@@H](C)CC)C(=O)O[C@H]1C)[C@@H](C)CC)[C@@H](C)CC [Compound 11, Val10-teixobactin] (H-[dNMeF]IS[dQ][d(aIle)]IS[dT]AVI; ester 8-C)

Result block:
1. 0.25
2. 0.25
3. 0.25

----------
System: MRSA 2: MRSA DR 42412 (sputum)
Assay: microbe, parasite or virus in culture
Details: MRSA 2; MHB containing polysorbate 80 (0.002%, v/v); 37 °C, 24 h
Bridge positions count the residues as written; N and C are the ends. Square brackets hold non-standard residues; d marks the D form. Peptide text beside a SMILES is read from it. d(aIle) = CC[C@H](C)[C@@H](N)C(=O)O; dNMeF = CN[C@H](Cc1ccccc1)C(=O)O
Task for the reader: assign each of the following compounds its reported MIC (with polysorbate 80).

Would you mind listing MIC (with polysorbate 80) for each of the following compounds?
1. CC[C@H](C)[C@@H]1NC(=O)[C@H](C)NC(=O)[C@H](NC(=O)[C@H](CO)NC(=O)[C@@H](NC(=O)[C@H](NC(=O)[C@@H](CCC(N)=O)NC(=O)[C@H](CO)NC(=O)[C@@H](NC(=O)[C@@H](Cc2ccccc2)NC)[C@@H](C)CC)[C@@H](C)CC)[C@@H](C)CC)[C@H](C)OC(=O)[C@H]([C@@H](C)CC)NC1=O [Compound 12, Ile10-teixobactin] (H-[dNMeF]IS[dQ][d(aIle)]IS[dT]AII; ester 8-C)
2. CC[C@H](C)[C@H](NC(=O)[C@@H](Cc1ccccc1)NC)C(=O)N[C@@H](CO)C(=O)N[C@H](CCC(N)=O)C(=O)N[C@@H](C(=O)N[C@H](C(=O)N[C@@H](CO)C(=O)N[C@H]1C(=O)N[C@@H](C)C(=O)N[C@@H](C(C)C)C(=O)N[C@@H]([C@@H](C)CC)C(=O)O[C@H]1C)[C@@H](C)CC)[C@@H](C)CC [Compound 11, Val10-teixobactin] (H-[dNMeF]IS[dQ][d(aIle)]IS[dT]AVI; ester 8-C)

Result block:
1: ≤ 0.0625 µg/mL; 2: 0.5 µg/mL

The measured MIC (with polysorbate 80) associated with CC[C@H](C)[C@H](NC(=O)[C@@H](Cc1ccccc1)NC)C(=O)N[C@@H](CO)C(=O)N[C@H](CCC(N)=O)C(=O)N[C@@H](C(=O)N[C@H](C(=O)N[C@@H](CO)C(=O)N[C@H]1C(=O)N[C@@H](C)C(=O)N[C@@H](CC(C)C)C(=O)N[C@@H]([C@@H](C)CC)C(=O)O[C@H]1C)[C@@H](C)CC)[C@@H](C)CC [Compound 13, Leu10-teixobactin] (H-[dNMeF]IS[dQ][d(aIle)]IS[dT]ALI; ester 8-C) reads ≤ 0.0625 µg/mL

----------
Task for the reader: assign each of the following compounds its reported MIC (with polysorbate 80).
System: MRSA 3: MRSA DM21455 (eye)
Assay: microbe, parasite or virus in culture
Conditions: MRSA 3; MHB containing polysorbate 80 (0.002%, v/v); 37 °C, 24 h
Bridge positions count the residues as written; N and C are the ends. Square brackets hold non-standard residues; d marks the D form. Peptide text beside a SMILES is read from it. d(aIle) = CC[C@H](C)[C@@H](N)C(=O)O; dNMeF = CN[C@H](Cc1ccccc1)C(=O)O

Solved entries:
[[record]]
compound = "CC[C@H](C)[C@H](NC(=O)[C@@H](Cc1ccccc1)NC)C(=O)N[C@@H](CO)C(=O)N[C@H](CCC(N)=O)C(=O)N[C@@H](C(=O)N[C@H](C(=O)N[C@@H](CO)C(=O)N[C@H]1C(=O)N[C@@H](C)C(=O)N[C@@H](C(C)C)C(=O)N[C@@H]([C@@H](C)CC)C(=O)O[C@H]1C)[C@@H](C)CC)[C@@H](C)CC [Compound 11, Val10-teixobactin] (H-[dNMeF]IS[dQ][d(aIle)]IS[dT]AVI; ester 8-C)"
measurement = "0.25 µg/mL"

[[record]]
compound = "CCCCCCCCCC(=O)N[C@@H](Cc1c[nH]c2ccccc12)C(=O)N[C@H](CC(N)=O)C(=O)N[C@@H](CC(=O)O)C(=O)N[C@@H]1C(=O)NCC(=O)N[C@@H](CCCN)C(=O)N[C@@H](CC(=O)O)C(=O)N[C@H](C)C(=O)N[C@@H](CC(=O)O)C(=O)NCC(=O)N[C@H](CO)C(=O)N[C@@H]([C@H](C)CC(=O)O)C(=O)N[C@@H](CC(=O)c2ccccc2N)C(=O)O[C@@H]1C [Daptomycin, reference compound]"
measurement = "0.5 µg/mL"

[[record]]
compound = "CC[C@H](C)[C@H](NC(=O)[C@@H](Cc1ccccc1)NC)C(=O)N[C@@H](CO)C(=O)N[C@H](CCC(N)=O)C(=O)N[C@@H](C(=O)N[C@H](C(=O)N[C@@H](CO)C(=O)N[C@H]1C(=O)N[C@@H](C)C(=O)N[C@@H](CCCNC(=N)N)C(=O)N[C@@H]([C@@H](C)CC)C(=O)O[C@H]1C)[C@@H](C)CC)[C@@H](C)CC"
measurement = "0.5 µg/mL"


The record that follows has no MIC (with polysorbate 80) shown yet.
// assay MRSA 3: MRSA DM21455 (eye), entry CC[C@H](C)[C@H](NC(=O)[C@@H](Cc1ccccc1)NC)C(=O)N[C@@H](CO)C(=O)N[C@H](CCC(N)=O)C(=O)N[C@@H](C(=O)N[C@H](C(=O)N[C@@H](CO)C(=O)N[C@H]1C(=O)N[C@@H](C)C(=O)N[C@@H](C)C(=O)N[C@@H]([C@@H](C)CC)C(=O)O[C@H]1C)[C@@H](C)CC)[C@@H](C)CC [Compound 8, Ala10-teixobactin] (H-[dNMeF]IS[dQ][d(aIle)]IS[dT]AAI; ester 8-C) , MIC (with polysorbate 80) value = 1 µg/mL

----------
Tested on: VRE 1: VRE ATCC 700802
Assay: organism not typed
Settings: VRE 1; MHB containing polysorbate 80 (0.002%, v/v); 37 °C, 24 h
Bridge positions count the residues as written; N and C are the ends. Square brackets hold non-standard residues; d marks the D form. Peptide text beside a SMILES is read from it. d(aIle) = CC[C@H](C)[C@@H](N)C(=O)O; dNMeF = CN[C@H](Cc1ccccc1)C(=O)O
Task for the reader: assign each of the following molecules its reported MIC (with polysorbate 80).

Solved entries:
[[record]]
molecule = "CC[C@H](C)[C@H](NC(=O)[C@@H](Cc1ccccc1)NC)C(=O)N[C@@H](CO)C(=O)N[C@H](CCC(N)=O)C(=O)N[C@@H](C(=O)N[C@H](C(=O)N[C@@H](CO)C(=O)N[C@H]1C(=O)N[C@@H](C)C(=O)N[C@@H](CC(C)C)C(=O)N[C@@H]([C@@H](C)CC)C(=O)O[C@H]1C)[C@@H](C)CC)[C@@H](C)CC [Compound 13, Leu10-teixobactin] (H-[dNMeF]IS[dQ][d(aIle)]IS[dT]ALI; ester 8-C)"
measurement = "0.25 µg/mL"

[[record]]
molecule = "CC[C@H](C)[C@@H]1NC(=O)[C@H](C)NC(=O)[C@H](NC(=O)[C@H](CO)NC(=O)[C@@H](NC(=O)[C@H](NC(=O)[C@@H](CCC(N)=O)NC(=O)[C@H](CO)NC(=O)[C@@H](NC(=O)[C@@H](Cc2ccccc2)NC)[C@@H](C)CC)[C@@H](C)CC)[C@@H](C)CC)[C@H](C)OC(=O)[C@H]([C@@H](C)CC)NC1=O [Compound 12, Ile10-teixobactin] (H-[dNMeF]IS[dQ][d(aIle)]IS[dT]AII; ester 8-C)"
measurement = "≤ 0.0625 µg/mL"


The measured MIC (with polysorbate 80) associated with `CC[C@H](C)[C@H](NC(=O)[C@@H](Cc1ccccc1)NC)C(=O)N[C@@H](CO)C(=O)N[C@H](CCC(N)=O)C(=O)N[C@@H](C(=O)N[C@H](C(=O)N[C@@H](CO)C(=O)N[C@H]1C(=O)N[C@@H](C)C(=O)N[C@@H](CCCNC(=N)N)C(=O)N[C@@H]([C@@H](C)CC)C(=O)O[C@H]1C)[C@@H](C)CC)[C@@H](C)CC` reads 2 µg/mL
